// merged dataset of Ki values, system = Prothrombin (Homo sapiens, UniProt P00734), multiple refs
observable: Ki (nM)

Please review the following examples before continuing.
                                   compound                            targetorsystem  observable   val
0  NC1CCC(CNC(=O)[C@@H]2CCCN2C(=O)C2COc3ccccc3O2)CC1 (some centres undefined)  Prothrombin (Homo sapiens, UniProt P00734)          Ki    75
1  NC(=O)c1ccc(/C=C2/CCCC/C(=C/c3ccc(C(N)=O)cc3)C2=O)cc1  Prothrombin (Homo sapiens, UniProt P00734)          Ki  2900

A = COCCN(Cc1ccoc1)C(=O)c1cc(C)cc(OCCCON=C(N)N)c1
B = CCOC(=O)CC(=O)NC(CCc1cccc[n+]1[O-])C(=O)NCC(=O)NCc1cc(Cl)ccc1CN (centres undefined)
C = N=C(N)N1CCC(OCCC2CCCCN2C(=O)[C@H](CC(=O)O)NC2CCCCC2)CC1 (some centres undefined)
D = N=C(N)c1ccc(OC[C@@H]2COc3ccc(N(Cc4ccccc4)C(=O)C(=O)O)cc3O2)cc1
E = N=C(N)NCCC[C@H](NS(=O)(=O)c1cccc2ccccc12)C(=O)N1CCN(CCCCCCCCCCCCN)CC1
Request: // sort entries: Ki, high to low Sort the labels as requested; that list is your answer.
Result: B, E, D, A, C
(B: 40000 nM, E: 5300 nM, D: 2690 nM, A: 28 nM, C: 7.1 nM)

----------
Dear all, I have gathered published Ki values for UniProt:P00734; the list follows.
observable: Ki (µM)

In [3]: df
Out[3]:
                                   compound  observable   val
0  N=C(N)c1cccc(-c2ncccc2C(=O)Nc2ccc(-c3ccccc3S(N)(=O)=O)cc2)c1.O=C(O)C(F)(F)F          Ki  15.4

I = N=C(N)c1ccc(Oc2ccc(C(=O)N[C@H]3CC[C@H](N)CC3)c(Oc3ccc(C(=N)N)cc3)n2)cc1
II = CCOC(=O)CCN(CC1CC1)C(=O)c1cc(C)cc(OCCCONC(=N)N)c1
Request: Which entry has a larger number for Ki, I or II ? Lab log: write the label of the selected item as the result.
Result: I

----------
Header: Ki / Prothrombin (Homo sapiens, UniProt P00734) / multiple publications
observable: Ki (nM)

                                   molecule   val
0  N=CNCCCC(NC(=O)CN(CCc1ccccc1)C(=O)CCc1ccccc1)B(O)O (stereo not drawn)  0.89
1  CC(C)c1cc(C(C)C)c(S(=O)(=O)N[C@@H](Cc2cccc(C(=N)N)c2)C(=O)N2CCN(C(=O)CCCN=C(N)N)CC2)c(C(C)C)c1  4200
2  CCCCOCC1(C(=O)Nc2ccc(-c3ccccc3S(N)(=O)=O)cc2)CC(c2cccc(C(=N)N)c2)=NO1 (stereo not drawn)  4000
3  N=C(N)C1CCC[C@H](NC(=O)CN2CCCC[C@H](NS(=O)(=O)Cc3ccccc3)C2=O)C1O (stereo partly drawn)  0.54

I = N=C(N)c1ccc2scc(C(Cc3ccc(N)cc3)C(=O)Nc3ccc(-n4cnc5ccccc54)cc3)c2c1.O=C(O)C(F)(F)F (stereo not drawn)
II = CC(C)[C@@H](N)CN1CCC[C@H]1C(=O)NCc1ccc(C(=N)N)cc1
III = CC(=O)O.N=C(N)c1ccc(CNC[C@H]2CN(c3ccc(N4CCC(C(=O)O)CC4)cc3)C(=O)O2)cc1
IV = CNC[C@H](CC1CCCCC1)Nc1ccncc1S(=O)(=O)N[C@@H](Cc1ccc(N)cc1)C(=O)N1CCC(CCF)CC1
V = Cc1ccc(S(=O)(=O)Nc2cccc(OCCNc3ccncc3)c2)cc1
Request: Rank descending by Ki. Answer by listing the labels in the order asked for.
Result: III, II, I, V, IV

----------
Listed below are compounds with Ki for Prothrombin (Homo sapiens, UniProt P00734), each taken from published literature.
observable: Ki (µM)

Study these solved cases before continuing.
compound	Ki (µM)
O=C(Cn1c(Cl)cnc(NCCc2cccc[n+]2[O-])c1=O)NCc1cc(Cl)ccc1OCC(F)(F)F	0.00031
N=C(N)c1ccc(CNC(=O)[C@@H]2CC3(CCCC3)c3c(Cl)nc(NC4CCC4)c(=O)n32)cc1	0.078
CN(CC(=O)N[C@@H](CCCN=C(N)N)B(O)O)C(=O)CCc1ccccc1	0.00016
Cc1ccc(NS(=O)(=O)Cc2ccc(Cl)cc2)c(=O)n1CC(=O)NCc1ccc2[nH]cnc2c1	0.0065
Nc1noc2ccc(-n3nc(C(F)(F)F)cc3C(=O)Nc3ccc(-n4ccnc4CO)cc3F)cc12	1.7

A = N=C(N)c1ccc2oc(C(=O)N3CCN(C(=O)CCCCCC(=O)N4CCN(C(=O)c5cc6cc(C(=N)N)ccc6o5)CC4)CC3)cc2c1
B = C[N+](C)(C)c1ccc(CNC(=O)c2cc3cc(O)ccc3n2Cc2cccc(C(=N)N)c2)cc1
Request: Given the listed records, identify the one among A and B with higher Ki. Provide the label of your selected option as the answer.
Result: A

P = COC(=N)NS(=O)(=O)c1ccc(NC(=O)[C@H](Cc2c[nH]cn2)NC(=O)CCNC(=O)NS(=O)(=O)c2ccc(C)cc2)cc1
Q = N=C(N)c1ccc2cc(C(=O)Nc3ccc(CO)cc3)ccc2c1
R = COC(=O)OC[C@@H](NS(=O)(=O)Cc1ccccc1)C(=O)NCC(=O)NCc1ccc(C(=N)N)cc1
S = N=C(N)c1ccc(CNC(=O)[C@@H]2Cc3cn(nn3)Cc3cccc(c3)Cn3cc(nn3)C[C@@H](NS(=O)(=O)Cc3ccccc3)C(=O)N2)cc1
T = COc1ccc(C)cc1CNC(=O)Cn1c(C)cnc(NCCc2ccccn2)c1=O
Request: // smallest Ki at index 0, largest at the end Please list the labels according to the requested order.
Result: T, P, R, S, Q

----------
Below, Ki values reported for Prothrombin (Homo sapiens, UniProt P00734) across several publications.
observable: Ki (nM)

Consider the worked cases shown below.
In [3]: df
Out[3]:
                                   compound                            targetorsystem   val
0  CC(=N)N1CCC(Oc2ccc3c4ccccc4n(Cc4ccc5ccc(C(=N)N)cc5c4)c3c2)CC1  Prothrombin (Homo sapiens, UniProt P00734)    40
1  CC(C)Nc1nc(Cl)c2n(c1=O)[C@H](C(=O)NCc1ccc(C(=N)N)cc1)CC2(C)C  Prothrombin (Homo sapiens, UniProt P00734)   130
2  Nc1noc2ccc(-n3nnnc3C(=O)Nc3ccc(-c4ccccc4S(N)(=O)=O)cc3F)cc12  Prothrombin (Homo sapiens, UniProt P00734)   600
3  Cc1cnc(NCC(F)(F)c2ccc(F)cc2)c(=O)n1CC(=O)NCc1cnc(N)cn1  Prothrombin (Homo sapiens, UniProt P00734)   5.9
4  Cc1ccc(NS(=O)(=O)Cc2ccccc2)c(=O)n1CC(=O)N[C@H]1CCc2nc(N)sc2C1  Prothrombin (Homo sapiens, UniProt P00734)  1160
5  N=C(N)c1cccc(CC(NS(=O)(=O)c2cccc(-c3ccc4[nH]ccc4c3)c2)C(=O)N2CCC(CCN)CC2)c1 (racemic)  Prothrombin (Homo sapiens, UniProt P00734)   190
6  Cc1cnc(NCCc2ccccn2)c(=O)n1CC(=O)NCc1ccc2[nH]ncc2c1  Prothrombin (Homo sapiens, UniProt P00734)   3.1
7  CCOC(=O)C(=O)N(Cc1ccc(F)cc1)c1ccc2c(c1)OC(C)(COc1ccc(C(=N)N)cc1)CN2C (centres undefined)  Prothrombin (Homo sapiens, UniProt P00734)    23

A = CN(CC(=O)N[C@@H](CCCCN)B(O)O)C(=O)Cc1ccccc1
B = Cc1cc(C(=O)Nc2ccc(-c3ccccc3S(N)(=O)=O)cn2)n(-c2cccc(C(=N)N)c2)n1
C = COC(=N)NS(=O)(=O)c1ccc(C)cc1
Request: List items by Ki in falling order. Output spec: a listing of the labels in the requested order.
Result: B, C, A
(B: 1400 nM, C: 328 nM, A: 16 nM)

A = CCc1cnc(NCCc2ccccc2)c(=O)n1CC(=O)NCc1ccc2[nH]ccc2c1
B = NC(N)=NCCCC(NC(=O)[C@@H]1CCCN1C(=O)[C@H](N)Cc1ccc2ccccc2c1)C(=O)CCC(=O)N1CCCCC1 (some centres undefined)
Request: Form: Entry with minimum Ki (choose one): A / B In your reply, give the label of the chosen option.
Result: A

A = CS(=O)(=O)c1ccccc1S(=O)(=O)Oc1cc(Cl)cc(OCCCON=C(N)N)c1
B = COc1ccc(-n2nc(C(=O)N(C)C)c3c2C(=O)N(c2ccc(-c4ccccc4CN4CC[C@@H](O)C4)cc2)CC3)cc1
Request: I'm curious whether A or B has the smaller Ki number. Which is it? Return value: the label identifying the chosen record.
Result: A
